Reported fold change of affinity values for the following binders.
# Experimental System: Human CD3eg linker (human)
# Sequence (chain, as listed by the source limits assumed): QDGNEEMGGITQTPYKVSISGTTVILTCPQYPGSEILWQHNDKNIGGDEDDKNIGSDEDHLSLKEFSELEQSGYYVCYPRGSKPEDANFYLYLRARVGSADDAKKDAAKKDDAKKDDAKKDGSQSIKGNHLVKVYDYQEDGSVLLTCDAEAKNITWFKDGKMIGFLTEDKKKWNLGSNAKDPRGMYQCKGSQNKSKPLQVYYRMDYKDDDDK
# Method: SPR; fold vs parent H183/L072
Report as a plain number; the unit fold is understood.

H183/L072 VL T92P (antibody, name in Kabat numbering, V domains shown) VH: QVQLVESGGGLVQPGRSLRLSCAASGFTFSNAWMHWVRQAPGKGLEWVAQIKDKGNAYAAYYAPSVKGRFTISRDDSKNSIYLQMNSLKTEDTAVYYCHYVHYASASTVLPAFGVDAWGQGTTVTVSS VL: DIVMTQSPLSLPVTPGEPASISCQASQELVHMNRNTYLHWYQQKPGQAPRLLIYKVSNRFPGVPDRFSGSGSGTDFTLKISRVEAEDVGVYYCAQGPSVPFTFGQGTKLEIK    0

Moving on to the next binder.
May I ask what fold change of affinity has been recorded for H183/L072 VL A25Y (antibody, name in Kabat numbering, V domains shown) VH: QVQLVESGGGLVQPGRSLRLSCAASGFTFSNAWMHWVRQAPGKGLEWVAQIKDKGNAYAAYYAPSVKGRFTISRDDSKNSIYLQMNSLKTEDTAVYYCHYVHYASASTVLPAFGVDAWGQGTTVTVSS VL: DIVMTQSPLSLPVTPGEPASISCQYSQELVHMNRNTYLHWYQQKPGQAPRLLIYKVSNRFPGVPDRFSGSGSGTDFTLKISRVEAEDVGVYYCAQGTSVPFTFGQGTKLEIK ?
0
